# Run parameters: rat; liver microsomes; pH 7.4; 15.0 min; 1.0 µM
Recorded metric: log10 half-life (log10 of the value in min)
Reminder: these figures are log10 of reported half-life, in min before transformation.

Ask | Tell me the measured log10 half-life of N#Cc1nc(-c2cccc3ccccc23)oc1NC1COC1 , please.
Reply | 1.45

Ask | Continue with O=C(Nc1ccc(Cl)c(S(=O)(=O)N2CCOCC2)c1)c1ccc(S(=O)(=O)N2CCCCC2)cc1
Reply | 0.48

Ask | Next: CCc1ccc2ncc(C(=O)c3ccc(C)c(C)c3)c(N3CCC(C(N)=O)CC3)c2c1
Reply | 0.17

Ask | // repeat for Cc1cc(C)nc(NC(=S)N2CCN(c3cccc(C(F)(F)F)n3)CC2)c1 and report
Reply | 1.45

Ask | Please give the result for Cc1ccc(C)n1-c1cccc(C(=O)O)c1 too.
Reply | 1.08

Ask | Now consider O=c1cc(/C=C/c2c(F)cccc2Cl)[nH]c2ccccc12 .
Reply | 1.25

Ask | Okay, and NC(=O)C1CCN(c2nc(-c3ccc(F)cc3)cs2)CC1 ?
Reply | 0.85

Ask | // same read-out, input: CC(C)(C#N)c1ccc(N2C(=O)OCc3cnc4ccc(-c5cnc6ccccc6c5)cc4c32)cc1
Reply | 0.45

Ask | Param item: O=C1CCCC2=C1C(c1[nH]ncc1Cl)N=C(Nc1nc3cc([S+](=O)([O-])N4CCOCC4)ccc3o1)N2 (stereo unspecified)
Reply | 0.97

Ask | Next compound: CCOC(=O)c1csc(NC(=O)c2ccncc2NS(=O)(=O)c2ccc(C)cc2)n1
Reply | 0.28

Ask | Quick one: CN(C)c1cccc(-c2cc(N3CCC(C(N)=O)CC3)ncn2)c1
Reply | 1.32

Ask | // repeat for CCOc1ccc(CCNC(=O)c2cc3cccnc3n2Cc2cccc(C)n2)cc1OCC and report
Reply | 0.23

Ask | And then COc1ccc(CCNc2ncnc3c2c(-c2ccccc2)cn3-c2cccc(Cl)c2)cc1OC , what is it?
Reply | 0.37

Ask | Let us now turn to O=C1CCc2cc(S(=O)(=O)Nc3ccc(F)c(Cl)c3)c(F)cc2N1
Reply | 1.23

Ask | And the next one, Cc1cccc(CN2CCN(c3ccccn3)CC2)c1 ?
Reply | 0.38

Ask | And the next one, Fc1ccc(CNc2cc3c(cn2)CN(Cc2ccncc2)CCN3)cc1 ?
Reply | 1.20

Ask | And the next one, OC1(CN2CCN(c3ccc(F)c(Cl)c3)CC2)CCCNC1 (stereo unspecified) ?
Reply | 0.78

Ask | Repeat with Cc1ccccc1C(=O)Nc1sc2c(c1C(=O)NCc1ccco1)CCC(C(C)(C)C)C2 (stereo unspecified)
Reply | 1.38

Ask | Another: CC(C)c1ccc(OCc2nc3c(n2Cc2ccccc2)C(=O)N(CC2CCOCC2)CCN3)cc1
Reply | 0.23

* * *

# Run parameters: rat; liver microsomes; pH 7.4; 15.0 min; 1.0 µM
# strict inequality: half-life < 6 min yields Condition met, everything else yields Condition not met

Ask | Does this molecule meet the criterion half-life < 6 min? O=C(NC1CC1)c1nc(-c2cccnc2)c2cnccn12
Reply | Condition not met

Ask | What do you have for COC(=O)C1=COC(C)C2CN3CCc4c([nH]c5cc(OC)c(OC)cc45)C3CC12 (stereo not given) ?
Reply | Condition not met

Ask | Again, but for COc1ccccc1C(=O)NC1CCCc2c1[nH]c1c(Cl)cccc21 (stereo not given)
Reply | Condition met

Ask | Likewise for Cc1ccc(-n2nc3c(=O)n(CCCC(=O)NCc4ccc(F)cc4)nc(C)c3c2C)cc1 ?
Reply | Condition met

Ask | Then Cc1cc(C)nc(NC(=S)N2CCN(c3ccc(Cl)cc3F)CC2)c1 ?
Reply | Condition not met

Ask | // same read-out, input: COc1cc2ncnc(Oc3cccc(NC(=O)Nc4cc(C(C)(C)C(F)(F)F)on4)c3)c2cc1OC
Reply | Condition not met

Ask | Also NC(=O)C1CCN(c2ncnc(-c3ccc4c(c3)OCCCO4)n2)CC1 , if possible.
Reply | Condition not met

Ask | // same read-out, input: O=[S+]([O-])(Nc1nccs1)c1ccc(NCc2ccc(Cl)c(Cl)c2)cc1
Reply | Condition not met

Ask | What about this molecule? c1ccc2c(Nc3nccs3)nc(-c3ccncc3)nc2c1
Reply | Condition not met

Ask | Same thing, different molecule: CC(=O)c1c(C)[nH]c(C(=O)Nc2cccc([S+](=O)([O-])Nc3ccccn3)c2)c1C
Reply | Condition not met

* * *

# Run parameters: rat; liver microsomes; pH 7.4; 15.0 min; 1.0 µM
Hi there, I'd appreciate the recorded half-life for every entry that follows.
Numeric only. Scale: min

Ask | Consider the molecule shown here: CCOC(=O)[C@H]1O[C@H]1C(=O)N[C@@H](CC(C)C)C(=O)NCCC(C)C What is its recorded half-life?
Reply | 1.48

Ask | Param item: COc1ccccc1CNS(=O)(=O)c1ccc(-c2cnc(C3CC3)o2)cc1
Reply | 1.58

Ask | Do the same for CC1=C(C(=O)NC2CCCCC2)C(c2ccccc2Br)N=C(Nc2nc3ccccc3o2)N1 (stereo unspecified) please
Reply | 7.4

Ask | For O=C(Nc1nc(-c2ccccc2)cs1)c1ccncc1NS(=O)(=O)c1ccc(F)cc1Cl then?
Reply | 19

Ask | And the next one, O=C(Cc1cccs1)NCc1nnc2ccc(-c3ccccc3)nn12 ?
Reply | 17.8

Ask | Now consider COc1ccccc1-c1[nH]nc2ncc(-c3ccc(C)cc3)nc12 and answer again.
Reply | 3

Ask | How about this molecule: NC(=O)C1CCN(c2nc(-c3ccc([N+](=O)[O-])cc3)cs2)CC1
Reply | 5.53

Ask | Please do the same for CCOc1ccc(CN2C(=O)c3ccccc3Sc3ccc(C(=O)NC4CCC(C)CC4)cc32)cc1 (stereo unspecified) as well.
Reply | 3.52

Ask | Would you mind doing Fc1cccc(Nc2nc(-c3ccncc3)nc3ccccc23)c1F as well?
Reply | 11

Ask | // next record Cc1cc(NS(=O)(=O)c2ccc(NC(=O)Cc3ccc(Cl)c(Cl)c3)cc2)no1
Reply | 9.7

Ask | Continue with O=c1[nH]nc(Sc2ncc([N+](=O)[O-])s2)n1-c1ccc2c(c1)OCCO2
Reply | 1.02

Ask | Check Nc1ccc(S(=O)(=O)Nc2cnccc2C(=O)Nc2nc(-c3ccccc3)cs2)cc1 too.
Reply | 25

Ask | // same read-out, input: CN([C@@H](Cc1ccc(O[S+](=O)([O-])c2cccc3cnccc23)cc1)C(=O)N1CCN(C(=O)OCc2ccccc2)CC1)[S+](=O)([O-])c1cccc2cnccc12
Reply | 2.7

Ask | Queued: Cc1ccnc(NC(=S)N2CCC(c3cccc(C(F)(F)F)c3)CC2)c1
Reply | 24

Ask | Please give the result for CC1=C(C(=O)Nc2ccc(Cl)cc2)C(c2ccccc2C)n2ncc(C(=O)Nc3ccc(C)cc3)c2N1 (stereo unspecified) too.
Reply | 9.84

Ask | How about O=C(Cc1n[nH]c(=O)c2ccccc12)NC1CCCc2c1[nH]c1c(Cl)cccc21 (stereo unspecified) ?
Reply | 8.05

Ask | Same thing, different molecule: CN(C)c1cccc(-c2cnc(N3CCC(C(N)=O)CC3)nc2)c1
Reply | 16.8

Ask | Entry to check: COC(=O)c1sccc1NC(=O)c1sccc1C
Reply | 1.46

Ask | Next up: Fc1ccc(Nc2nc(-c3ccncc3)nc3ccccc23)cc1F
Reply | 9.82

Ask | Please answer likewise for O=[N+]([O-])c1cccnc1N/N=C/c1ccccc1O
Reply | 7.7

Ask | Same for Cc1ccc(Nc2nc(-c3ccncc3)nc3ccccc23)cc1F
Reply | 12

Ask | Same question for COc1ccc(C)cc1NS(=O)(=O)c1ccc(-c2cnc(C3CC3)o2)cc1 please.
Reply | 3.38

Ask | Same again, this time with Cc1ccc(-n2nc3c(=O)n(CCCC(=O)NC(C)c4ccccc4)nc(C)c3c2C)cc1 (stereo unspecified)
Reply | 2.27

Ask | Moving on to the next molecule: CCN(c1ccccc1)S(=O)(=O)c1c(C)nc2scc(C)n2c1=O
Reply | 1.7

Ask | # repeat for CCOC(=O)c1ccc(NC(=O)CSc2nc3c(cc2C#N)N2CCC3CC2)cc1
Reply | 4.26

Ask | // repeat for Fc1ccc(CN2CCNc3cc(Nc4ccccc4)ncc3C2)cc1F and report
Reply | 2.28

Ask | What about CC(C)(C)C(=O)N1CCN(c2nccc(Nc3ccccc3Cl)n2)CC1 ?
Reply | 4.07

Ask | Another molecule to check: COC(=O)[C@H](NC(=O)c1cc(-c2ccccc2)nc2ccccc12)c1ccccc1
Reply | 11

Ask | Do the same for CCC(Sc1nc2ccccc2c2nc(CCc3c(C)n[nH]c3C)nn12)C(=O)Nc1ccc(F)cc1 (stereo unspecified) please
Reply | 4.01

Ask | Same lookup for O=S(=O)(Nc1nccs1)c1ccc(NCc2ccc(Br)cc2O)cc1 , please.
Reply | 5.4

Ask | # iterate: COc1cccc(-c2cn3c(n2)sc2cc(C(=O)NCCc4ccc(OC)c(OC)c4)ccc23)c1
Reply | 2.26

Ask | Next up: N#C/C(=C\c1ccc(Sc2ccc(Cl)cc2)o1)c1nc2ccccc2[nH]1
Reply | 7.56

Ask | Entry O=C1CCCC2=C1C(c1[nH]ncc1Cl)N=C(Nc1nc3c(Cl)cccc3o1)N2 (stereo unspecified) please
Reply | 3.4
